This collection of values is drawn from ChEMBL document CHEMBL1201861.

# IC50 per entry
Tested on: CAPAN-1;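 further: growth suppression of CAPAN-1 cells, read out by a cell viability assay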
protocol.summary: cells
Format: functional, cell-based
protocol.conditions: Homo sapiens
Description: SANGER: Inhibition of human CAPAN-1 cell growth in a cell viability assay.

compound: O=C(NCCCNc1nc(Nc2cccc(NC(=O)N3CCCC3)c2)ncc1I)c1cccs1 [BX-795]
IC50: > 5 µM
--
compound: CCCCCCCCCCCC1=C(O)C(=O)C=C(O)C1=O [EMBELIN]
IC50: 9.01 µM
--
compound: CC1=C(/C=C/C(C)=C/C=C/C(C)=C/C(=O)O)C(C)(C)CCC1 [TRETINOIN]
IC50: > 10 µM
--
compound: Cc1ccc(C(=O)Nc2ccc(CN3CCN(C)CC3)c(C(F)(F)F)c2)cc1C#Cc1cnc2cccnn12 [PONATINIB]
IC50: > 0.512 µM
--
compound: NC1(c2ccc(-c3nc4ccn5c(=O)[nH]nc5c4cc3-c3ccccc3)cc2)CCC1 [MK-2206]
IC50: > 4 µM
--
compound: O=C1NC(=O)c2c1c(-c1ccccc1Cl)cc1[nH]c3ccc(O)cc3c21
IC50: > 2 µM
--
compound: CC1(C)CCC(c2ccc(Cl)cc2)=C(CN2CCN(c3ccc(C(=O)NS(=O)(=O)c4ccc(N[C@H](CCN5CCOCC5)CSc5ccccc5)c(S(=O)(=O)C(F)(F)F)c4)cc3)CC2)C1 [NAVITOCLAX]
IC50: > 2 µM

----------
Test system: OAW-42;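 further: growth inhibition of OAW-42 cells, read out with a cell viability assay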
protocol.summary: cells
Type: functional, cell-based
protocol.conditions: Homo sapiens
Description: SANGER: Inhibition of human OAW-42 cell growth in a cell viability assay.

structure.smiles: NC(=O)Nc1cc(-c2cccc(F)c2)sc1C(=O)N[C@H]1CCCNC1
IC50: 937 nM
--
structure.smiles: NC(=O)c1ccc(N(C(N)=O)c2c(F)cccc2F)nc1-c1ccc(F)cc1F
IC50: > 2000 nM
--
structure.smiles: Cc1ccc(-n2nc(C(C)(C)C)cc2NC(=O)Nc2ccc(OCCN3CCOCC3)c3ccccc23)cc1
IC50: > 10000 nM
--
structure.smiles: COC(=O)[C@H](CCSC)NC(=O)c1ccc(NC[C@@H](N)CS)cc1-c1ccccc1
IC50: > 1020 nM
--
structure.smiles: CN(NC(=O)CC(=O)NN(C)C(=S)c1ccccc1)C(=S)c1ccccc1
IC50: 81.6 nM
--
structure.smiles: O=S(=O)(O)c1ccc2cc(/N=N/c3cc(S(=O)(=O)O)c4cccnc4c3O)ccc2c1
IC50: > 16000 nM

----------
Here the recorded pIC50 is given for each entry.
System: SW-620;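 further: growth inhibition of human SW-620 cells, measured by a cell viability assay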
protocol.summary: cells
Format: functional, cell-based
protocol.conditions: Homo sapiens
Description: SANGER: Inhibition of human SW620 cell growth in a cell viability assay.
pIC50: −log10 of the molar value.

molecule: O=S(=O)(O)c1ccc2cc(/N=N/c3cc(S(=O)(=O)O)c4cccnc4c3O)ccc2c1
pIC50: < 4.80
--
molecule: NC(=O)Nc1cc(-c2cccc(F)c2)sc1C(=O)N[C@H]1CCCNC1 [AZD-7762]
pIC50: 6.18
--
molecule: O=C(NCCCNc1nc(Nc2cccc(NC(=O)N3CCCC3)c2)ncc1I)c1cccs1 [BX-795]
pIC50: < 5.30
--
molecule: NC1(c2ccc(-c3nc4ccn5c(=O)[nH]nc5c4cc3-c3ccccc3)cc2)CCC1 [MK-2206]
pIC50: < 5.40

----------
System: NB10
protocol.summary: cells
Assay type: functional, cell-based, Homo sapiens
protocol.conditions: nb10
Description: SANGER: Inhibition of human NB10 cell growth in a cell viability assay.
pIC50: −log10 of the molar value. Where a SMILES comes first, the peptide text is derived from it. The star is where a group is joined. Cbz = O=C(OCc1ccccc1)*

molecule: CC(C)C[C@@H](C=O)NC(=O)[C@H](CC(C)C)NC(=O)[C@H](CC(C)C)NC(=O)OCc1ccccc1 [MG-132] (Cbz-Leu-Leu-Leu-aldehyde)
pIC50: < 6.00

----------
Tested on: NCI-H1436;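 further: growth suppression of human NCI-H1436 cells, determined with a cell viability readout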
protocol.summary: cells
Format: functional, cell-based, Homo sapiens
protocol.conditions: Homo sapiens, NCI-H1436
Description: SANGER: Inhibition of human NCI-H1436 cell growth in a cell viability assay.
pIC50: −log10 of the molar value. Where a SMILES comes first, the peptide text is derived from it. The star is where a group is joined. Cbz = O=C(OCc1ccccc1)*
Measured pIC50, listed per entry.

compound: C[C@@H](Oc1cc(-c2cnn(C3CCNCC3)c2)cnc1N)c1c(Cl)ccc(F)c1Cl
pIC50: < 5.70

compound: C/C(=C\c1csc(C)n1)[C@@H]1C[C@@H]2O[C@]2(C)CCC[C@H](C)[C@H](O)[C@@H](C)C(=O)C(C)(C)[C@@H](O)CC(=O)O1
pIC50: 8.11

compound: NC(=O)c1cccc(-c2cc(Nc3ccc(OC(F)(F)F)cc3)ncn2)c1
pIC50: < 5.89

compound: Cc1cc(N2CCOCC2)cc2[nH]c(-c3c(NC[C@@H](O)c4cccc(Cl)c4)cc[nH]c3=O)nc12
pIC50: < 5.29

compound: Cc1ccc(C(=O)Nc2ccc(CN3CCN(C)CC3)c(C(F)(F)F)c2)cc1C#Cc1cnc2cccnn12
pIC50: < 6.29

compound: CC(C)C[C@@H](C=O)NC(=O)[C@H](CC(C)C)NC(=O)[C@H](CC(C)C)NC(=O)OCc1ccccc1 [MG-132] (Cbz-Leu-Leu-Leu-aldehyde)
pIC50: < 6.00

compound: COc1cc(N2CCC(N3CCN(C)CC3)CC2)ccc1Nc1ncc(Cl)c(Nc2ccccc2S(=O)(=O)C(C)C)n1
pIC50: < 5.70

compound: C=CC(=O)N1CCCC(Nc2nc(Nc3ccc(N(C)C(=O)CC)cc3)nc3[nH]cnc23)C1 (centres undefined)
pIC50: < 4.99

compound: O=S(=O)(O)c1ccc2cc(/N=N/c3cc(S(=O)(=O)O)c4cccnc4c3O)ccc2c1
pIC50: < 4.80

----------
Tested on: SW 1116
protocol.summary: cells
Assay type: functional, cell-based
protocol.conditions: Homo sapiens
Description: SANGER: Inhibition of human SW1116 cell growth in a cell viability assay.
pIC50: −log10 of the molar value.

compound: O=C(NCCCNc1nc(Nc2cccc(NC(=O)N3CCCC3)c2)ncc1I)c1cccs1 [BX-795]
measured.target: SW 1116
pIC50: < 5.30

compound: CS(=O)(=O)N1CCN(Cc2cc3nc(-c4cccc5[nH]ncc45)nc(N4CCOCC4)c3s2)CC1 [PICTILISIB]
measured.target: SW 1116
pIC50: < 5.40

compound: Cc1ccc(-n2nc(C(C)(C)C)cc2NC(=O)Nc2ccc(OCCN3CCOCC3)c3ccccc23)cc1 [DORAMAPIMOD]
measured.target: SW 1116
pIC50: < 5.00

compound: NC1(c2ccc(-c3nc4ccn5c(=O)[nH]nc5c4cc3-c3ccccc3)cc2)CCC1 [MK-2206]
measured.target: SW 1116
pIC50: < 5.40

----------
System: COLO-741
protocol.summary: cells
Format: functional, cell-based
protocol.conditions: Homo sapiens
Description: SANGER: Inhibition of human COLO-741 cell growth in a cell viability assay.

compound: CS(=O)(=O)N1CCN(Cc2cc3nc(-c4cccc5[nH]ncc45)nc(N4CCOCC4)c3s2)CC1 [PICTILISIB]
IC50: > 4 µM

----------
Tested on: OVCAR-3;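 further: growth inhibition of human OVCAR-3 cells, determined by a cell viability assay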
protocol.summary: cells
Type: functional, cell-based
protocol.conditions: Homo sapiens
Description: SANGER: Inhibition of human OVCAR-3 cell growth in a cell viability assay.
pIC50: −log10 of the molar value.
The entries below come with measured pIC50 values attached.
measured.parameter: pIC50

structure.smiles: NC(=O)Nc1cc(-c2cccc(F)c2)sc1C(=O)N[C@H]1CCCNC1
result: 6.56
//
structure.smiles: O=S(=O)(O)c1ccc2cc(/N=N/c3cc(S(=O)(=O)O)c4cccnc4c3O)ccc2c1
result: < 4.80
//
structure.smiles: CN(C)CCOc1ccc(-c2nc(-c3ccncc3)c(-c3ccc4c(c3)CC/C4=N\O)[nH]2)cc1
result: < 5.30
//
structure.smiles: Cc1ccc(-n2nc(C(C)(C)C)cc2NC(=O)Nc2ccc(OCCN3CCOCC3)c3ccccc23)cc1
result: < 5.00
//
structure.smiles: O=C(NCCCNc1nc(Nc2cccc(NC(=O)N3CCCC3)c2)ncc1I)c1cccs1
result: < 5.30
//
structure.smiles: CCCCCCCCCCCC1=C(O)C(=O)C=C(O)C1=O
result: 4.63
//
structure.smiles: CS(=O)(=O)N1CCN(Cc2cc3nc(-c4cccc5[nH]ncc45)nc(N4CCOCC4)c3s2)CC1
result: < 5.40
//
structure.smiles: CN(NC(=O)CC(=O)NN(C)C(=S)c1ccccc1)C(=S)c1ccccc1
result: 8.21

----------
Tested on: OS-RC-2
protocol.summary: cells
Format: functional, cell-based, Homo sapiens
protocol.conditions: Homo sapiens, OS-RC-2
Description: SANGER: Inhibition of human OS-RC-2 cell growth in a cell viability assay.
pIC50: −log10 of the molar value.
Measured pIC50 of individual entries

structure.smiles: CS(=O)(=O)N1CCN(Cc2cc3nc(-c4cccc5[nH]ncc45)nc(N4CCOCC4)c3s2)CC1
pIC50: < 5.40

structure.smiles: OC[C@H](Cc1ccccc1)Nc1nc(Oc2ccc3c(c2)CCC3)nc2c1ncn2Cc1ccc(-c2ccccc2)cc1
pIC50: < 4.99

structure.smiles: CC1(C)CCC(c2ccc(Cl)cc2)=C(CN2CCN(c3ccc(C(=O)NS(=O)(=O)c4ccc(N[C@H](CCN5CCOCC5)CSc5ccccc5)c(S(=O)(=O)C(F)(F)F)c4)cc3)CC2)C1
pIC50: < 5.70

structure.smiles: O=C(NCCCNc1nc(Nc2cccc(NC(=O)N3CCCC3)c2)ncc1I)c1cccs1
pIC50: < 5.30

structure.smiles: NC(=O)c1ccc(N(C(N)=O)c2c(F)cccc2F)nc1-c1ccc(F)cc1F
pIC50: < 5.70

structure.smiles: NC(=O)c1cccc(-c2cc(Nc3ccc(OC(F)(F)F)cc3)ncn2)c1
pIC50: < 5.89

structure.smiles: CC(C)C[C@H](NC(=O)[C@H](Cc1ccccc1)NC(=O)c1cnccn1)B(O)O
pIC50: 9.36

structure.smiles: COC(=O)[C@H](CCSC)NC(=O)c1ccc(NC[C@@H](N)CS)cc1-c1ccccc1
pIC50: < 5.99

structure.smiles: Cc1ccc(C(=O)Nc2ccc(CN3CCN(C)CC3)c(C(F)(F)F)c2)cc1C#Cc1cnc2cccnn12
pIC50: < 6.29

structure.smiles: COc1ccc(N(C(=O)Oc2c(C)cccc2C)c2ccnc(Nc3ccc(N4CCN(C)CC4)cc3)n2)c(OC)c1
pIC50: 6.46
